Source: paper PMC11982978

- test.target: T1, Active phosphorylated His6-tagged ERK2 R133K (rat (p-0033 says mouse)), P63086
- T1 chain: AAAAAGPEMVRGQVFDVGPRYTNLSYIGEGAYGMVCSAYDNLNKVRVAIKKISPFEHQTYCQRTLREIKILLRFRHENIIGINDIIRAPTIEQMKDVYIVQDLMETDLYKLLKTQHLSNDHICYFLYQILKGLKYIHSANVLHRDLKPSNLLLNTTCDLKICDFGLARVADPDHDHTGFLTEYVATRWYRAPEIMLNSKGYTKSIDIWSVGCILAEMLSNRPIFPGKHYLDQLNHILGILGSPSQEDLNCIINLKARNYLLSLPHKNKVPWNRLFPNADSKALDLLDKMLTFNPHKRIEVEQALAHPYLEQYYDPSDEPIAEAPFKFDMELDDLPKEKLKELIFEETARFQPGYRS
- condition.description: modification not given; phosphorylated (active form; sites not given)
Ends that are not written are not given here.
readout: IC50 (µM)
Unit µM implied. Number only.

Input: Form field: reported IC50 of PQKGRKPRDLELPL (not fully specified (some residues, N-terminus)) [ELK1]
Output: 58
